Test system: 60 cancer cell lines (NCI 60 cancer cell line series)
Assay: NCI-DTP in vitro cancer screen, sulforhodamine B (SRB) growth inhibition, 48 hour exposure
Type: cell-based, human
Settings: Colon KM12 CL4017
Where a name gives a salt, the structure may show the parent alone.
Measured classification of cell line as Low(1), Medium(2), High(3) sensitivity to compound by item
Measurement label: classification of cell line as Low(1), Medium(2), High(3) sensitivity to compound

Molecule	Subject of test	Endpoint result
CN(Cc1cnc2nc(N)nc(N)c2n1)c1ccc(C(=O)N[C@@H](CCC(=O)O)C(=O)O)cc1 [Methotrexate]	60 cancer cell lines (NCI 60 cancer cell line series)	2
CC[C@]1(O)C[C@@H]2CN(CCc3c([nH]c4ccccc34)[C@@](C(=O)OC)(c3cc4c(cc3OC)N(C)[C@H]3[C@@](O)(C(=O)OC)[C@H](OC(C)=O)[C@]5(CC)C=CCN6CC[C@]43[C@@H]65)C2)C1 [Vinblastine sulfate]	60 cancer cell lines (NCI 60 cancer cell line series)	2
O=C1c2c(O)ccc(O)c2C(=O)c2c(NCCNCCO)ccc(NCCNCCO)c21	60 cancer cell lines (NCI 60 cancer cell line series)	1
